assay-protocol: Pharmacokinetics after oral administration of LJF extract in CCl4-induced liver injury model rats
Type: in vivo, Sprague-Dawley rats
condition: male, Sprague-Dawley, rat; liver injury model group (M, CCl4), oral LJF ethanol extract 15.75 g/kg, plasma, mean ± SD, n = 6; read-out: t1/2 (converted)

>  <compound>
O=C(O)c1ccc(O)c(O)c1 [PA, protocatechuic acid]

>  <unit-of-measure>
h

>  <half-life>
25.5

$$$$
>  <compound>
O=C(/C=C/c1ccc(O)c(O)c1)O[C@H]1C[C@](O)(C(=O)O)C[C@@H](O)[C@H]1O [3-CQA, 3-caffeoylquinic acid]

>  <unit-of-measure>
h

>  <half-life>
12.2

$$$$
>  <compound>
O=C(/C=C/c1ccc(O)c(O)c1)O[C@@H]1C[C@](O)(C(=O)O)C[C@@H](O)[C@H]1O [5-CQA, 5-caffeoylquinic acid]

>  <unit-of-measure>
h

>  <half-life>
18.9

$$$$
>  <compound>
O=C(/C=C/c1ccc(O)c(O)c1)O[C@@H]1[C@H](O)C[C@@](O)(C(=O)O)C[C@@H]1O (stereo in doubt) [4-CQA, 4-caffeoylquinic acid]

>  <unit-of-measure>
h

>  <half-life>
42.2

$$$$

Origin of values: paper PMC9739780
